Test system: human PKK mRNA
measurement description: Antisense inhibition of human PKK mRNA in HepaRG cells, 1,000 nM, MOE/deoxy/cEt oligonucleotides (Example 3)
Assay type: cell-based
study conditions: Table 19; HepaRG cells, electroporation with 1,000 nM antisense oligonucleotide, approximately 24 hours; PKK mRNA by RT-PCR (RTS3454), relative to untreated control cells
Strand notation (5' to 3'): a small letter for the sugar, then the base; units joined by * are phosphorothioate-linked, units joined directly phosphodiester-linked; [ ] holds rarer units or linkages, { } end groups; capitals alone tell only the bases. e = 2'-O-(2-methoxyethyl) (MOE); k = constrained ethyl (cEt); [5mC] = 5-methylcytosine; d = 2'-deoxy (DNA)
endpoint label: % inhibition (%)

> print(dat)
                                  substance   tested.target  test.value
1  548123 (antisense eA*eG*kA*d[5mC]*dT*d[5mC]*dT*dG*dG*dA*d[5mC]*dT*dG*k[5mC]*kT*eT) [compound 548123]  human PKK mRNA          49
2  548131 (eA*eA*kT*dT*dT*dG*dA*d[5mC]*dT*dT*dG*dA*dA*k[5mC]*kT*e[5mC]; antisense) [compound 548131]  human PKK mRNA          45
3  548106 (antisense e[5mC]*e[5mC]*kA*dT*dG*dT*dA*d[5mC]*dT*d[5mC]*dA*dG*d[5mC]*kG*kA*e[5mC]) [compound 548106]  human PKK mRNA          79
4  548092 (antisense eT*eT*kG*d[5mC]*dA*dA*dA*d[5mC]*dT*dA*dA*dG*dG*kG*kA*e[5mC]) [compound 548092]  human PKK mRNA          30
